Target: Avi-KRAS WT (1-169) GppNHp/RAF1 RBD-3xFLAG (52-151) (Homo sapiens)
Construct: Avi-KRAS WT (1-169)
Sequence (P01116 1-169 isoform P01116-2): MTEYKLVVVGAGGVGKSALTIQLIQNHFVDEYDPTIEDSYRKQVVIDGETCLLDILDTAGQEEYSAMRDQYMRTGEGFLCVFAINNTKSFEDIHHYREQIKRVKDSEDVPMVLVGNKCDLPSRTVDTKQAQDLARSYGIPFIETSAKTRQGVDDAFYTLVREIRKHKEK
Assay: Raf1-KRAS WT-GppNHP disruption HTRF assay (Biological Example 1)
Type: binding
Conditions: KRAS WT, GppNHp-loaded; Table 11
Description: A protein:protein interaction (PPI) Homogeneous Time Resolved Fluorescence (HTRF) assay was used to determine the effectiveness of compounds of the present disclosure in disrupting KRAS protein and effector RAF1 binding. The assay buffer included: 50 mM Tris pH 7.5, 100 mM NaCl, 5 mM MgCl2, 0.1% BSA, 0.01% Tween, and 10% DMSO. The bead buffer included: 50 mM Tris pH 7.5, and 0.01% Tween 20. […] Data was reported as percentage of activity, with DMSO as 100%. Data was plotted and analyzed using Prism 8.
pIC50: −log10 of the molar value.
test-readout: pIC50

• CCN(c1nc(OC[C@@]23CCCN2C[C@H](F)C3)nc2c(F)c(-c3ccc(F)c4sc(N)c(C#N)c34)c(C(F)(F)F)cc12)[C@@H]1CCN(C(C)=O)[C@@H]1COC [Compound 118] = 6.00 to 7.00
• CN(c1nc(OCC23CCCN2CCC3)nc2c(F)c(-c3ccc(F)c4sc(N)nc34)c(C(F)(F)F)cc12)[C@H]1C[C@@H](O)C1 (atropisomer, axis not shown) [Compound 2] = 6.00 to 7.00
• CCN(c1nc(OC[C@@]23CCCN2C[C@H](F)C3)nc2c(F)c(-c3ccc(F)c4sc(N)c(C#N)c34)c(C(F)(F)F)cc12)[C@@H]1CCN(C(C)=O)[C@@H]1C [Compound 189] = 6.00 to 7.00
• N#Cc1c(N)sc2c(F)ccc(-c3c(C(F)(F)F)cc4c(N5CCNS(=O)(=O)CC5)nc(OC[C@@]56CCCN5C[C@H](F)C6)nc4c3F)c12 [Compound 245] = > 7.00

Please turn your attention to the following entry.
Exam item: Need pIC50, item Nc1nc2c(-c3c(C(F)(F)F)cc4c(N5CCC(CO)C5)nc(OCC56CCCN5CCC6)nc4c3F)ccc(F)c2s1 (centres unmarked) [Compound 56]
Marked response: 5.00 to 6.00

###

Each item that follows carries a reported pIC50.
Target: Avi-KRAS G12R (1-169) GppNHp/RAF1 RBD-3xFLAG (52-151) (Homo sapiens, UniProt P01116, G12R)
Construct: Avi-KRAS G12R (1-169)
Sequence (P01116 1-169 isoform P01116-2 G12R): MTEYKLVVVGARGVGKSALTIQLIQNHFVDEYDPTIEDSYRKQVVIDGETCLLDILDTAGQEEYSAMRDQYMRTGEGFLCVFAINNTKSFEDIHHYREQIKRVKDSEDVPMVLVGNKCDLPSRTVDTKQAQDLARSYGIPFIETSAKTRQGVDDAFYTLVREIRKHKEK
Assay: Raf1-KRAS G12R-GppNHP disruption HTRF assay (Biological Example 1)
Assay type: binding
Details: KRAS G12R-GppNHp/RAF1 RBD HTRF
pIC50: −log10 of the molar value.

Examples from the recorded data:
• CC[C@@H](C)C(=O)N1CC[C@H](N(CC)c2nc(OC[C@@]34CCCN3C[C@H](F)C4)nc3c(F)c(-c4ccc(F)c5sc(N)c(C#N)c45)c(C(F)(F)F)cc23)C1 (atropisomer, axis not shown) [Compound 563] = 6.00 to 7.00
• CCN(c1nc(OC[C@@]23CCCN2C[C@H](F)C3)nc2c(F)c(-c3ccc(F)c4sc(N)c(C#N)c34)c(C(F)(F)F)cc12)[C@H]1CCN(C(=O)OC(C)C)C1 (atropisomer, axis not shown) [Compound 556] = > 7.00
• CCN(c1nc(OC[C@@]23CCCN2C[C@H](F)C3)nc2c(F)c(-c3ccc(F)c4sc(N)c(C#N)c34)c(C(F)(F)F)cc12)[C@H]1CCN(C(=O)OC)C1 (atropisomer, axis not shown) [Compound 541] = > 7.00
• CCN(c1nc(OC[C@@]23CCCN2C[C@H](F)C3)nc2c(F)c(-c3ccc(F)c4sc(N)c(C#N)c34)c(C(F)(F)F)cc12)[C@H]1CCN(C(=O)C(C)C)C1 [Compound 332] = > 7.00
• CCC(=O)N1CC[C@](C)(N(C)c2nc(OC[C@@]34CCCN3C[C@H](F)C4)nc3c(F)c(-c4ccc(F)c5sc(N)c(C#N)c45)c(C(F)(F)F)cc23)C1 [Compound 506] = 5.00 to 6.00

Exam item: Need pIC50, item CN(c1nc(OC[C@@]23CCCN2C[C@H](F)C3)nc2c(F)c(-c3ccc(F)c4sc(N)c(C#N)c34)c(C(F)(F)F)cc12)[C@@H]1CNC(=O)C1 [Compound 340]
Marked response: 6.00 to 7.00

Exam item: Need pIC50, item N#Cc1c(N)sc2c(F)ccc(-c3c(C(F)(F)F)cc4c(N5CCc6cn[nH]c6C5)nc(OC[C@@]56CCCN5C[C@H](F)C6)nc4c3F)c12 [Compound 354]
Marked response: 5.00 to 6.00
